B1: tRNA (parent)
chain: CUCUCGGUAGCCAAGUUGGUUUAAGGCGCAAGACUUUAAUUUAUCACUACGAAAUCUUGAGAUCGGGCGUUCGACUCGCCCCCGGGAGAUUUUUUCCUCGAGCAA

- Variants of: B1
- Method Notes: nonsense suppression (GFP-seq) (ratio to wild type); higher = more function; SUP4oc tRNA, yeast GFP reporter sort-seq
Fewer inactive variants are shown than the library holds.
Each entry gets F if its nonsense suppression stays under 0.08, and T if its nonsense suppression is 0.08 or above.

A9G U63A | T
U16C C82G | F
C5A G19U U55G A60U | F
U2C C5G | F
C34U G69A A89C | F
U76A C79A | F

Determine whether this variant has nonsense suppression no lower than 0.08: G6C A14G A60C G65U C79G G86C
F

Could you do the same for U17A U22G , please?
T

Could you do the same for U57A G84U , please?
F

Could you do the same for G61A C75U , please?
T

Could you do the same for A54U G69C C81G , please?
F
